meta.source: ChEMBL document CHEMBL5137055

Test: Binding affinity to amyloid beta (unknown origin)
Design: species or system Homo sapiens
pKi: −log10 of the molar value.
Each entry gets -1 if its pKi stays under 7, and 1 if its pKi is 7 or above.

Consider the following illustrative entries.
COMPOUND	CAT
CN(C)c1ncc(/C=C/C=C/C=C/C=C(C#N)C#N)cn1	-1
O=C(O)c1cc(/N=N/c2ccc(-c3ccc(/N=N/c4ccc(O)c(C(=O)O)c4)cc3)cc2)ccc1O [CHRYSAMINE G]	-1
CN(C)c1ccc(/C=C/C=C/C=C/C=C(C#N)C#N)cc1	1
COC(=O)C(=C/C=C/C=C/c1ccc(N(C)C)cc1)C(=O)OC	-1
COc1cc(/C=C/C(O)=C/C(=O)/C=C/c2ccc(OCCCF)c(OC)c2)ccc1O	1

Ask: Item N#CC(C#N)=Cc1ccc(-c2ccc(-c3ccc(O)cc3)s2)s1 with pKi of 7 or above?
Result: 1
